Test system: A2780Cis cisplatin-resistant ovarian cancer cells
Assay: Antiproliferative activity (SRB assay), A2780Cis
Assay type: cell-based, human
Settings: 24 h drug exposure, 72 h recovery in drug-free medium
Quantity Kind: IC50 (µM)

Compound | Value Reported
[NH2][Pt]([NH2])([Cl])[Cl] [CDDP, cisplatin, reference compound] | 13.4

###

System: HEPG2 human hepatocellular cancer cells
Assay: Antiproliferative activity (SRB assay), HEPG2
Type: cell-based
Details: 24 h drug exposure, 72 h recovery in drug-free medium

Compound | IC50 [µM]
[NH2][Pt]([NH2])([Cl])[Cl] [CDDP, cisplatin, reference compound] | 5.7

###

System: A549 human lung cancer cells
Experiment: Antiproliferative activity (SRB assay), A549
Format: cell-based
Details: 24 h drug exposure, 72 h recovery in drug-free medium

Compound | IC50 / µM
[NH2][Pt]([NH2])([Cl])[Cl] [CDDP, cisplatin, reference compound] | 3.1

Hello, the source for this data is paper PMC5989272, in case you need it.
